# Test system: IRF3 signaling pathway (IRF-inducible ISG54 promotor) in THP1-Lucia ISG cells
# Assay Details: THP1-Lucia ISG reporter assay: induction of IRF3-dependent luciferase activity
# Assay type: cell-based
# Condition Label: Homo sapiens, 10 μM compound, PMA-differentiated cells, 18 h after stimulation, read-out: THP1 ISG: fold increase of IRF3-dependent luciferase activity over background
# reported fold induction at 10 µM; entries follow

Field: example entries. Status: answers known.
INSERT INTO assay_data (mol, target_under_test, recorded_endpoint, result) VALUES
  ('CS(=O)(=O)c1ccc2nc(NC(=O)c3cc4ccccc4cc3OCCCCN3CCOCC3)sc2c1', 'IRF3 signaling pathway (IRF-inducible ISG54 promotor) in THP1-Lucia ISG cells', 'fold induction at 10 µM', '5 to 9.9'),
  ('O=C(Nc1nc2ccc(S(=O)(=O)N3CCCC3)cc2s1)c1cc2ccccc2cc1OCCCCN1CCOCC1', 'IRF3 signaling pathway (IRF-inducible ISG54 promotor) in THP1-Lucia ISG cells', 'fold induction at 10 µM', '10 to 19'),
  ('O=C(Nc1nc2ccc(S(=O)(=O)N3CCCC3)cc2s1)c1cc2ccccc2cc1OCCCCN1CCC(F)(F)CC1', 'IRF3 signaling pathway (IRF-inducible ISG54 promotor) in THP1-Lucia ISG cells', 'fold induction at 10 µM', '20 to 39'),
  ('O=C(Nc1nc2cccc(NC(=S)Nc3ccccc3)c2s1)c1cc2ccccc2cc1OCCCCN1CCOCC1', 'IRF3 signaling pathway (IRF-inducible ISG54 promotor) in THP1-Lucia ISG cells', 'fold induction at 10 µM', '2.4 to 4.9'),
  ('O=C(Nc1nc2ccc(S(=O)(=O)N3CCCCC3)cc2s1)c1cc2ccccc2cc1OCCN1CCOCC1', 'IRF3 signaling pathway (IRF-inducible ISG54 promotor) in THP1-Lucia ISG cells', 'fold induction at 10 µM', '10 to 19');

Note down fold induction at 10 µM recorded for "O=C(Nc1nc2ccc(OCC(F)(F)F)cc2s1)c1ccc2ccccc2c1" 2.4 to 4.9

Read the entry "O=C(Nc1cc2ccc(S(=O)(=O)N3CCCC3)cc2s1)c1cc2ccccc2cc1OCCN1CCOCC1" and write its reported fold induction at 10 µM. 10 to 19

Answer with the recorded fold induction at 10 µM for the compound listed here: "O=C(Nc1cc2ccc(S(=O)(=O)N3CCCC3)cc2s1)c1cc2ccsc2cc1OCCN1CCOCC1" 20 to 39

Entry source: patent US20200071316A1
